Assay: 28-day repeat oral dose toxicity study, toxicokinetics
Assay type: in vivo, Sprague Dawley rats
Details: male, Sprague Dawley, rat, plasma, po, 25 mg/kg, KH176 25 mg/kg/dose BID oral, M, Day 1, plasma, read-out: AUC0–24 h
MEASURED_METRIC: AUC(0-t) (ng·h/mL)
Numeric answer only, unit ng·h/mL assumed.

Identify AUC(0-t) associated with the compound Cc1c(C)c2c(c(C)c1O)CC[C@@](C)(C(=O)N[C@@H]1CCCNC1)O2.Cl [KH176]
10500

----------
Assay: Single dose pharmacokinetics and bioavailability study
Type: in vivo, male Sprague Dawley rats
Conditions: male, Sprague Dawley, po; rat, KH176 10 mg/kg p.o., plasma
MEASURED_METRIC: AUC(0-t) (ng·h/mL)
Numeric answer only, unit ng·h/mL assumed.

Identify AUC(0-t) associated with the compound `Cc1c(C)c2c(c(C)c1O)CC[C@@](C)(C(=O)N[C@@H]1CCCNC1)O2.Cl`
1870

----------
Molecular target: human Prdx2 (Homo sapiens)
Sequence (P32119 whole entry): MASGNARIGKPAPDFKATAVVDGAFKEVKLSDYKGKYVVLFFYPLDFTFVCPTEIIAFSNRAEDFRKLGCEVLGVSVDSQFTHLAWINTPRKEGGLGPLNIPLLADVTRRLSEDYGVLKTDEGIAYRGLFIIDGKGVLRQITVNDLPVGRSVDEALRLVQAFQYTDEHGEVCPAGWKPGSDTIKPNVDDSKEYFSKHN
Test: Surface Plasmon Resonance binding
Settings: immobilized Prdx2, SPR; read-out: Affinity (Kd), Langmuir one site model
MEASURED_METRIC: pKd
Please report pKd as the negative decimal logarithm of the molar concentration, giving only the number.

Identify pKd associated with the molecule CC1=C(C)C(=O)C(CC[C@](C)(O)C(=O)N[C@@H]2CCCNC2)=C(C)C1=O [KH176m]
6.52

----------
Test: 28-day repeat oral dose toxicity study, toxicokinetics
Format: in vivo, Beagle dogs
Settings: female, Beagle, dog, plasma, po, 25 mg/kg, KH176 25 mg/kg/dose BID oral, F, Day 1, plasma, read-out: Cmax
MEASURED_METRIC: Cmax
Kindly report the value followed by its unit.

Identify Cmax associated with the compound `Cc1c(C)c2c(c(C)c1O)CC[C@@](C)(C(=O)N[C@@H]1CCCNC1)O2.Cl`
4150 ng/mL

----------
Assay: 28-day repeat oral dose toxicity study, toxicokinetics
Format: in vivo, Sprague Dawley rats
Settings: female, Sprague Dawley, rat, plasma, po, 75 mg/kg, KH176 75 mg/kg/dose BID oral, F, Day 1, plasma
MEASURED_METRIC: half-life (min)
Numeric answer only, unit min assumed.

Identify half-life associated with the compound `Cc1c(C)c2c(c(C)c1O)CC[C@@](C)(C(=O)N[C@@H]1CCCNC1)O2.Cl`
504

----------
Tested on: primary human skin fibroblasts
Assay: Mitochondrial superoxide detection by mitoSOX oxidation
Assay type: cell-based
Details: 30 min preincubation, no external stimulus; read-out: IC50 mitochondrial superoxide levels (mitoSOX)
MEASURED_METRIC: IC50
Kindly report the value followed by its unit.

Identify IC50 associated with the compound CC1=C(C)C(=O)C(CC[C@](C)(O)C(=O)N[C@@H]2CCCNC2)=C(C)C1=O [KH176m]
1400 nM

----------
Assay: 28-day repeat oral dose toxicity study, toxicokinetics
Assay type: in vivo, Beagle dogs
Settings: female, Beagle, dog, plasma, po, 62.5 mg/kg, KH176 62.5 mg/kg/dose BID oral, F, Day 28, plasma
MEASURED_METRIC: half-life (h)
Numeric answer only, unit h assumed.

Identify half-life associated with the compound Cc1c(C)c2c(c(C)c1O)CC[C@@](C)(C(=O)N[C@@H]1CCCNC1)O2.Cl [KH176]
2.3

----------
Test: 28-day repeat oral dose toxicity study, toxicokinetics
Format: in vivo, Sprague Dawley rats
Conditions: male, Sprague Dawley, rat, plasma, po, 25 mg/kg, KH176 25 mg/kg/dose BID oral, M, Day 28, plasma
MEASURED_METRIC: half-life (h)
Numeric answer only, unit h assumed.

Identify half-life associated with the molecule Cc1c(C)c2c(c(C)c1O)CC[C@@](C)(C(=O)N[C@@H]1CCCNC1)O2.Cl [KH176]
5.6

Measured values drawn from paper PMC5920042 for this set.
